These entries and their values trace back to paper PMC12136788.

Target: T1, UNK ZnF1-3 (human, UniProt Q9C0B0 31-174)
T1 sequence: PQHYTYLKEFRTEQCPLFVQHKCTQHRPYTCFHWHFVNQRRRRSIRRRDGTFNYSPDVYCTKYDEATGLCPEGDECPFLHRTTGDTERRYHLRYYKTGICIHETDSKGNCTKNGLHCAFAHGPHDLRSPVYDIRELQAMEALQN
Assay: nsRBNS (natural sequence RNA bind-n-seq); RBNS binding buffer (assumed for nsRBNS): 25 mM Tris pH 7.5, 150 mM KCl, 3 mM MgCl2, 0.01% Triton X-100, 500 ug/ml BSA, 20 U/ml SUPERase-In, 4 C; UNK is unkempt and MSI1 is Musashi-1; names of the RNAs are library labels; protein concentration not given here; high values mean tight binding
In all, about 24,000 sequences were measured (“enrichment r”: median about 0.99, highest 2% from about 3.7 on). The sample holds the highest values, similar sequences and a random draw of the others, so the mix is not that of the screen.
Endpoint: binding signal (enrichment R)
Note: unit enrichment R is implicit; provide only the numeric part.

Below are worked cases with known answers.
binder="chr2:203071915:203071916:-_ENSG00000116030_ENST00000392246|hu_hu|FALSE|FALSE (ssRNA) RNA: GGGAGUUCUACAGUCCGACGAUCCAAAGAGAUGGGGUGCCAGUUUUCAAUUCCGUUUUGAACACCACAUUACAAAAGAACUAUUUUUAAAAAUAAAAAAGGAUUGAGGGAAAAGAAAAAAAAUAAAAAGAAUAUCUAAACUGUCAACAGAGGAUUGAGCAUCA" endpoint="binding signal" reading_unit="enrichment R" quantitative_result=32.1
binder="chr2:203071915:203071916:-_ENSG00000116030_ENST00000392246|hu_hu|motif|central (ssRNA) RNA: GGGAGUUCUACAGUCCGACGAUCCAAAGAGAUGGGGUGCCAGUUUUCAAUUCCGUUUUGAACACCACAUUACAAAAGAACGGUUUUUAAAAAUAAAAAAGGAUUGAGGGAAAAGAAAAAAAAUAAAAAGAAUAUCUAAACUGUCAACAGAGGAUUGAGCAUCA" endpoint="binding signal" reading_unit="enrichment R" quantitative_result=20.1
binder="chr17:56552419:56552420:-_ENSMUSG00000013236_ENSMUST00000086828|mus_mus|mus_mus_mus_hu_False|48_98 (ssRNA) RNA: GGGAGUUCUACAGUCCGACGAUCAAAAAAUACACUAUAAAAAAAAAAUGAAAUGUCACGGGAUACAGUUACACUGAGAGUUUUAAAAAAAAAUAAGAUUCUGGUCCCAGCCCAGUGUCCCCAGGCUGCAGAGCGGGGAGGAGCCAACAGAGGAUUGAGCAUCA" endpoint="binding signal" reading_unit="enrichment R" quantitative_result=11.1
binder="chr7:17500836:17500837:-_ENSMUSG00000019370_ENSMUST00000019514|mus_mus|FALSE|FALSE (ssRNA) RNA: GGGAGUUCUACAGUCCGACGAUCUGAACUGAACACAAUAUUGCCCGGUUUGUUUGUUUGUUUAAAAAAAAAAAAAAAAAAGGAAAAACAAAAAACCAAAAUAAAACCCCGAAACAUUCCGCAAAGUCCACAGCCUCACGCCUACAACAGAGGAUUGAGCAUCA" endpoint="binding signal" reading_unit="enrichment R" quantitative_result=6.58

I am curious: what binding signal value has been reported for chr17:56552419:56552420:-_ENSMUSG00000013236_ENSMUST00000086828|mus_mus|mus_mus_mus_hu_False|48_58 (ssRNA) RNA: GGGAGUUCUACAGUCCGACGAUCAAAAAAUACACUAUUUAAAAAAAAUGAAAUGUCACGGGAUACAGUUACACUGACACUAUUAAAAAAAAAUAAGAUUCUGGUCCCAGCCCAGUGUCCCCAGGCUGCAGAGCGGGGAGGAGCCAACAGAGGAUUGAGCAUCA ?
8.56

Find the recorded binding signal belonging to chr17:56552419:56552420:-_ENSMUSG00000013236_ENSMUST00000086828|mus_mus|mus_mus_mus_hu_False|48_48 (ssRNA) RNA: GGGAGUUCUACAGUCCGACGAUCAAAAAAUACACUAUUUAAAAAAAAUGAAAUGUCACGGGAUACAGUUACACUGAGAGUUUUAAAAAAAAAUAAGAUUCUGGUCCCAGCCCAGUGUCCCCAGGCUGCAGAGCGGGGAGGAGCCAACAGAGGAUUGAGCAUCA and report it.
7.18

# lookup: binding signal of chr17:56552419:56552420:-_ENSMUSG00000013236_ENSMUST00000086828|mus_mus|mus_mus_mus_hu_False|1_48 (ssRNA) RNA: GGGAGUUCUACAGUCCGACGAUCAAAAAAUACACUAUUUAAAAAAAAUGAAAUGUCACGGGAUACAGUUACACUGAGAGUUUUAAAAAAAAAUAAGAUUCUGGUCCCAGCCCAGUGUCCCCAGGCUGCAGAGCGGGGCAGAGGCAACAGAGGAUUGAGCAUCA
3.79
